# assayTarget: Cytochrome P450 2C9 (Homo sapiens) (UniProt P11712)
# Sequence (P11712 whole entry, looked up): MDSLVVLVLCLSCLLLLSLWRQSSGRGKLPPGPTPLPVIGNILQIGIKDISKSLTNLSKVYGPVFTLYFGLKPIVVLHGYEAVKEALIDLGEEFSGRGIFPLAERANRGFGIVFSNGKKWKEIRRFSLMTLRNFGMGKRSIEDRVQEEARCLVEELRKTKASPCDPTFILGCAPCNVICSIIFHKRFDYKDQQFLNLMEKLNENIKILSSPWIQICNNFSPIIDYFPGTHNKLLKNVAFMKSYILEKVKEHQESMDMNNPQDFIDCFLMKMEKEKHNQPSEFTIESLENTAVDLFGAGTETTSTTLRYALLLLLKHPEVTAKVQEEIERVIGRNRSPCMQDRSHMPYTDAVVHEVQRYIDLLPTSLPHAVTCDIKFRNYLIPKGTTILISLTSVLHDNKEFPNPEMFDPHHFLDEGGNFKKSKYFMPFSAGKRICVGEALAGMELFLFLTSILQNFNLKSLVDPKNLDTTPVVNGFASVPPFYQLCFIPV
# protocolText: blockers of cytochrome P450 2C9 activity – biochemical, luminescence, ADME assay, primary screen (AID 777)
# details: CYP2C9 Supersomes, luciferin-H conversion, at 5 µM, active compounds read high
Screen size: about 96,000 compounds; about 19,000 (20%) were called active. A selection follows.
reportedEndpoint: inhibition (%)

> print(dat)
                                    compound  numericvalue
 1              O=C(CCSc1ccccc1)NCCSc1ccccn1          41.7
 2  CCn1cc(C(=O)NCc2ccc(OC)cc2OC)c(=O)c2ccc(C)nc21          15.3
 3        COC(=O)Nc1c(C)n(C)n(-c2ccccc2)c1=O         -15.1
 4      CCCCC(=O)Nc1ccc(C(=O)NCCCn2ccnc2)cc1          33.7
 5         Cc1ccc(F)cc1NC(=O)c1cccc(N(C)C)c1          -1.6
 6  O=C(OCc1cn(-c2ccc(Cl)c(Cl)c2)nn1)c1ccccc1Cl         -32.3
 7                   Cc1nnc2sc(-c3ccco3)nn12          -2.2
 8  Cc1ccc(S(=O)(=O)Nc2ccccc2CNc2c(C)n(C)n(-c3ccccc3)c2=O)cc1          83.9
 9                Cc1cc(Nc2ccccc2)n(CCC#N)n1         -12.2
10    Cc1ccc(-c2csc(-c3c[nH]c4ccccc34)n2)cc1           9.8
11  c1ccc2c(NCC3CCCO3)nc(-c3ccncc3)nc2c1 (configuration not stated)            83
12         CCCCOC(=O)c1[nH]c(C)c(C(=O)OC)c1C          61.2

* * *

# inhibition annotations
# assayTarget: Cytochrome P450 2C9 (Homo sapiens) (UniProt P11712)
# protocolText: blockers of cytochrome P450 2C9 activity – biochemical, luminescence, ADME assay, primary screen (AID 777)
# details: CYP2C9 Supersomes, luciferin-H conversion, at 5 µM, active compounds read high
Screen size: about 96,000 compounds; about 19,000 (20%) were called active. These entries were drawn from the full list.
reportedEndpoint: inhibition (%)

> print(dat)
                           structurenotation  displayunit  numericvalue
 1  O=C(CN1CCN(CC(=O)Nc2ccc3c(c2)OCO3)CC1)Nc1ccc(F)cc1            %          33.1
 2  Cc1ccc(C(=O)Nc2c(C#N)c(C)c(C)n2Cc2ccccc2)cc1            %          22.4
 3         O=C(Nc1ccccc1N1CCCCC1)c1cccc(F)c1            %           1.2
 4      O=C(Nc1ccccc1N1CCCCC1)c1ccc2nccnc2c1            %          28.1
 5       O=C(c1ccc2c(c1)OCO2)N1CCNc2ccccc2C1            %         -40.3
 6  Cc1cc(C(=O)COC(=O)c2cccs2)c(C)n1-c1c(C)n(C)n(-c2ccccc2)c1=O            %          15.4
 7  O=C(Cn1cc(-c2nnnn2-c2ccc(Cl)cc2)c(=O)c2ccccc21)c1ccccc1            %         -11.4
 8  O=C(Nc1ccccc1N1CCN(C(=O)c2ccccc2)CC1)c1ccc2c(c1)OCO2            %          83.3
 9  COc1ccc(Cn2c(C)c(C)c(C#N)c2NC(=O)Nc2ccc(F)cc2)cc1            %          13.6
10  O=C(CN1CCN(c2ccccc2F)CC1)c1ccc2c(c1)OCO2            %          74.2

* * *

# assayTarget: Cytochrome P450 2C9 (Homo sapiens) (UniProt P11712)
# protocolText: blockers of cytochrome P450 2C9 activity – biochemical, luminescence, ADME assay, primary screen (AID 777)
# details: CYP2C9 Supersomes, luciferin-H conversion, at 5 µM, active compounds read high
The whole screen tested about 96,000 compounds, of which about 19,000 (20%) were called active. Only a sample is shown.
# inhibition annotations
reportedEndpoint: inhibition (%)

> print(dat)
                                   compound  numericvalue
1  CCOc1c2ccc(C(=O)NC3CCCc4ccccc43)cc2nn1CC (stereo unspecified)           5.1
2       CCOc1cc(C(=O)Nc2ncccn2)cc(OCC)c1OCC           3.1
3          COCc1cc(C)nc(Nc2cc(C)ccc2C)c1C#N          15.6
4  CCOC(=O)c1cc2c(n(-c3ccc(C)cc3)c1=O)CCCC2=O            12
5   Cc1cc(C(F)(F)F)c(C#N)c(SCC(=O)NC2CC2)n1          17.2
6               C=C(Br)Cn1c(CCCC)nc2ccccc21            35

* * *

# assayTarget: Cytochrome P450 2C9 (Homo sapiens)
# protocolText: blockers of cytochrome P450 2C9 activity – biochemical, luminescence, ADME assay, primary screen (AID 777)
# details: CYP2C9 Supersomes, luciferin-H conversion, at 5 µM, active compounds read high
Screen size: about 96,000 compounds; about 19,000 (20%) were called active. Not all results are given here.
// label = yes if inhibition is not less than 10%, otherwise no

> print(dat)
                                    compound  categorylabel
 1  CC1Cc2ccccc2N1C(=O)c1cc2sccc2n1Cc1ccccc1 (stereo not given)            yes
 2  Cc1ccc(S(=O)(=O)N2CCC(C(=O)N[C@@H](C)C(=O)NCCc3ccccc3)CC2)cc1             no
 3  CCC(=O)N1c2ccc(S(=O)(=O)CCC(=O)N3CCN(c4ccccc4)CC3)cc2CC1C (stereo not given)            yes
 4         CCCOc1ccc2c3c(c(=O)oc2c1OCCC)CCC3             no
 5        CCCS(=O)(=O)N1CCN(C(=O)c2cccs2)CC1             no
 6                c1ccc(CCC2=NCCn3cccc32)cc1             no
 7  COc1ccc(C(C(O)C(=O)c2c[nH]c3ccccc23)N2CCN(c3ccccc3)CC2)cc1 (stereo not given)            yes
 8        Cc1cccc(C(=O)Nc2ccc(CC(=O)O)cc2)c1             no
 9  O=C1CN(c2nc(-c3ccccc3)c3cc(Br)ccc3n2)c2ccccc2N1             no
10      COc1cccc(C(=O)c2cc3ccc(O)cc3oc2=O)c1            yes
11  CCc1ccc(CNC(=O)C2CCCN(c3nc4ccccc4o3)C2)cc1 (stereo not given)            yes
12  O=C(CCCN1C(=O)CCC1=O)Nc1ccc(Cl)c(C(F)(F)F)c1             no
13  Cc1nc2c(C(=O)NCc3ccc4c(c3)OCO4)c[nH]n2c(=O)c1Cc1ccccc1F            yes
14  Cc1nc(-c2ccccc2)sc1-c1nc(-c2ccccc2)ncc1S(=O)(=O)c1ccccc1            yes
15  Cn1cccc1C(=O)NC(=O)COC(=O)Cc1coc2ccc3ccccc3c12             no
16     C/C(=N\NS(=O)(=O)c1ccc(Br)cc1)c1cccs1            yes
17  O=C1c2cccnc2C(Nc2ccc(S(=O)(=O)N3CCCCCC3)cc2)N1Cc1ccccc1 (stereo not given)            yes
18              COc1ccc2oc(=O)c(C(=O)O)cc2c1             no
19             CSc1nc2nc3c(c(=O)n2[nH]1)CCC3             no

* * *

# inhibition annotations
# assayTarget: Cytochrome P450 2C9 (Homo sapiens)
# protocolText: blockers of cytochrome P450 2C9 activity – biochemical, luminescence, ADME assay, primary screen (AID 777)
# details: CYP2C9 Supersomes, luciferin-H conversion, at 5 µM, active compounds read high
The campaign covered roughly 96,000 compounds. About 19,000 (20%) were called active. The list is a sample of the results.
reportedEndpoint: inhibition

> print(dat)
                                    molecule  reportedendpoint             result
 1       COc1ccc(OC)c(S(=O)(=O)Nc2ccccc2F)c1        inhibition     57.6% (active)
 2         Cc1nnc(N(Cc2ccco2)C(=O)c2ccno2)s1        inhibition   11.2% (inactive)
 3  Cc1ccc(S(=O)(=O)N2CCN(C(=O)CCC(=O)NC3CCCc4ccccc43)CC2)cc1 (stereo not given)        inhibition   32.1% (inactive)
 4                 O=C(Nc1ccc(Cl)cc1)c1ccsn1        inhibition   -4.3% (inactive)
 5  Cc1nn(Cc2ccc(C(=O)N3N=C(C(F)F)CC3(O)C(F)F)cc2)c(C)c1[N+](=O)[O-] (stereo not given)        inhibition   25.2% (inactive)
 6       COc1ccc2c(c1OC)C(=O)N(c1ncn[nH]1)C2        inhibition  -23.9% (inactive)
 7  O=C(/C=C/c1cccs1)c1cc(Cl)ccc1OC(=O)N1CCOCC1        inhibition   28.1% (inactive)
 8  CCOc1ccc(CNC(=O)C2CC(=O)N(C3CCCC3)C2)cc1OC (stereo not given)        inhibition    7.1% (inactive)
 9  O=C(O)CCC(=O)N(Cc1ccco1)c1nc(-c2ccccc2)cs1        inhibition    5.2% (inactive)
10  Cc1c(C(=O)OCC(=O)N(CCC#N)c2ccccc2)oc2c1ccc1ccccc12        inhibition  -74.8% (inactive)
